Collected pIC50 values appear next to each entry.
- EXPERIMENTAL_TARGET: Discoidin domain-containing receptor 2 (Homo sapiens, UniProt Q16832, T654M)
- Sequence (Q16832 22-855 T654M limits assumed): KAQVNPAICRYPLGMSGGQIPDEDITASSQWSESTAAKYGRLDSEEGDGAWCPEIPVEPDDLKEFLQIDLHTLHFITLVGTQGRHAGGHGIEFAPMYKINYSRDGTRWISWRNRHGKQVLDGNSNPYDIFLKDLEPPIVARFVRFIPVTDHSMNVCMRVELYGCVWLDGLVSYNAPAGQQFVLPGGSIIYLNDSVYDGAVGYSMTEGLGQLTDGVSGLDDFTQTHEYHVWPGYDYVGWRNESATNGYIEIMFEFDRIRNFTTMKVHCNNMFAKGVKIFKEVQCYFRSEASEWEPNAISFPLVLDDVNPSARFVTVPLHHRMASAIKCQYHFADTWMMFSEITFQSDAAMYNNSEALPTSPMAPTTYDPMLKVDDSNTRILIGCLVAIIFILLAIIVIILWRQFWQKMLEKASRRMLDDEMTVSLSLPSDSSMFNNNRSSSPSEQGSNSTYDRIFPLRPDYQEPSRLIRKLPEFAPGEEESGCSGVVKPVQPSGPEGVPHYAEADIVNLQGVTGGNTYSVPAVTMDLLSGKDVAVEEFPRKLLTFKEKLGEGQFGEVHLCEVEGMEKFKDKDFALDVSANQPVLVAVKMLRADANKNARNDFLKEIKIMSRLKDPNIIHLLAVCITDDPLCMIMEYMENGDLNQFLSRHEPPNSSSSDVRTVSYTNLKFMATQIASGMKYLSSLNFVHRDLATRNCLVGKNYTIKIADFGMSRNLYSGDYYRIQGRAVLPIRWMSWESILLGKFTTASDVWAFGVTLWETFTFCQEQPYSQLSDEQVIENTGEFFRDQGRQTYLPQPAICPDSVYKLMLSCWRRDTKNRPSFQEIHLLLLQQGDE
- METHOD_NOTES: Inhibition of DDR2 T654M mutant (unknown origin) preincubated for 30 mins before substrate addition by FRET assay
Field pIC50 (float): negative decimal logarithm of the concentration in molar.

Example entries begin here.
1. CC(C)(C)c1cc(NC(=O)Nc2ccccc2)n(-c2cccc(N)c2)n1; 5.60
2. NC(=O)c1c(OCc2c(F)cc(Br)cc2F)nsc1NC(=O)NCCCCN1CCCC1 [OSI-632]; 6.35

Now look at this entry.
Prompt: Give its pIC50 value. Item: Cc1cccc(-n2nc(C(C)(C)C)cc2NC(=O)Nc2ccc(Cl)cc2)c1
Response: 6.09

====

- EXPERIMENTAL_TARGET: Discoidin domain-containing receptor 2 (Homo sapiens, UniProt Q16832)
- Sequence (Q16832 whole entry, the tested form may be a part): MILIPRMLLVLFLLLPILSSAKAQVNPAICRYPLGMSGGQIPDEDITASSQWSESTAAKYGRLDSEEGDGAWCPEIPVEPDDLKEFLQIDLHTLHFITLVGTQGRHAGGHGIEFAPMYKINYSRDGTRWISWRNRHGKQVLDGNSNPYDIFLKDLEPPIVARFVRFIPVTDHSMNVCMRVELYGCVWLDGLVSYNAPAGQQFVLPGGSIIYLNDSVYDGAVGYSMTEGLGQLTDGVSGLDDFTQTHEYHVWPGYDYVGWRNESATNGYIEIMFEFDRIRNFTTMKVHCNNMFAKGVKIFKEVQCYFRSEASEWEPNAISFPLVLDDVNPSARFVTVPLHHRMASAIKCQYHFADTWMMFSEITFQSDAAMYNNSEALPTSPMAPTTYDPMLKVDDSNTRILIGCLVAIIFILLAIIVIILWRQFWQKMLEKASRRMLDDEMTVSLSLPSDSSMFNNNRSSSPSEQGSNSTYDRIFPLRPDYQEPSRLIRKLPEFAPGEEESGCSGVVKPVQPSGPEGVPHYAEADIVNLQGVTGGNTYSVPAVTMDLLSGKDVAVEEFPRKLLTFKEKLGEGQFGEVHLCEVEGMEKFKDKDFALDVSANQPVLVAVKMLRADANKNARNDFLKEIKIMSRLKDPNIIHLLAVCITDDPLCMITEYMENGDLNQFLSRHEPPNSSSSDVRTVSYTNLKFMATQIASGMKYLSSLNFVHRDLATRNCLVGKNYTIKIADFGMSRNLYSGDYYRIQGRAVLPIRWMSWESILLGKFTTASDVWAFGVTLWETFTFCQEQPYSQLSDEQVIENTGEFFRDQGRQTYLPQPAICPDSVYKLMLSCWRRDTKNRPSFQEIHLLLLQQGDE
pIC50: −log10 of the molar value.
Cut-off 6 on pIC50, inclusive. At or above means Yes; below means No.

Answered examples (6):
1) NC(=O)c1c(OCc2c(F)cc(Br)cc2F)nsc1NC(=O)NCCCCN1CCCC1 [OSI-632]; Yes
2) CC(C)(C)c1cc(NC(=O)Nc2cccc(Nc3ncnc4ccccc34)c2)n(-c2cccc(N)c2)n1; Yes
3) O=C(O)Cc1ccc(-n2nc(C3CCCC3)cc2NC(=O)Nc2nc(CCOCc3ccccc3)cs2)cc1; No
4) CC(C)(C)c1cc(NC(=O)Nc2cccc3ccccc23)n(-c2cccc([N+](=O)[O-])c2)n1; Yes
5) O=C(O)Cc1cccc(-n2nc(C3CCCC3)cc2NC(=O)Nc2nc(CCOCc3ccccc3)cs2)c1; No
6) Cc1cccc(-n2nc(C(C)(C)C)cc2NC(=O)Nc2ccc(Cl)cc2)c1; Yes

Prompt: Can CC(C)(C)c1cc(NC(=O)Nc2ccc(OCCN3CCOCC3)c3ccccc23)n(-c2cccc(N)c2)n1 be said to have pIC50 at or above 6?
Response: Yes

Prompt: How about this compound: CC(C)(C)c1cc(NC(=O)Nc2nc(CCOCc3ccccc3)cs2)n(-c2cccc(CC(=O)O)c2)n1
Response: No

Prompt: What about O=C(Nc1ccc(OCCN2CCOCC2)c2ccccc12)c1cc(F)cc(N2CCOCC2)c1 ?
Response: No

Prompt: Further, for CC(C)(C)c1cc(NC(=O)Nc2ccc(Nc3ncnc4ccccc34)cc2)n(-c2cccc(N)c2)n1 ?
Response: Yes

Prompt: Also CC(C)(C)c1cc(NC(=O)Nc2nccs2)n(-c2ccc(CC(=O)O)cc2)n1 , if possible.
Response: No

Prompt: Try this compound next: Cc1ccc(-n2nc(C(C)(C)C)cc2NC(=O)Nc2nc(CCOCc3ccncc3)cs2)cc1
Response: Yes

Prompt: Same read-out for CC(C)(C)c1cc(NC(=O)Nc2nc(CCOCc3ccccc3)cs2)n(-c2ccc(CC(=O)O)cc2)n1 ?
Response: No

Prompt: Would you mind doing CC(C)(C)c1cc(NC(=O)Nc2ccc(Cl)cc2)n(-c2cccc(N)c2)n1 as well?
Response: Yes

Prompt: Would you kindly repeat that for Cc1ccc(-n2nc(C(C)(C)C)cc2NC(=O)Nc2nccs2)cc1 ?
Response: No

Prompt: Cool, now CCC(=O)Nc1cccc(-n2nc(C(C)(C)C)cc2NC(=O)Nc2ccc(OCCN3CCOCC3)c3ccccc23)c1
Response: Yes

====

- EXPERIMENTAL_TARGET: Discoidin domain-containing receptor 2 (Homo sapiens, UniProt Q16832, T654M)
- METHOD_NOTES: Inhibition of DDR2 T654M mutant (unknown origin) preincubated for 30 mins before substrate addition by FRET assay
Reported IC50 values for a set of compounds
Expressed in nM, but write only the number.

// worked examples, IC50 included
1) Cc1ccc(-n2nc(C(C)(C)C)cc2NC(=O)Nc2nccs2)cc1; 1150
2) CC(C)(C)c1cc(NC(=O)Nc2ccc(Cl)cc2)n(-c2cccc(N)c2)n1; 717
3) CC(C)(C)c1cc(NC(=O)Nc2ccc(Nc3ncnc4ccccc34)cc2)n(-c2cccc(N)c2)n1; 1
4) O=C(O)Cc1cccc(-n2nc(C3CCCC3)cc2NC(=O)Nc2nc(CCOCc3ccccc3)cs2)c1; 380
5) CC(C)(C)c1cc(NC(=O)Nc2ccc(OCCN3CCOCC3)c3ccccc23)n(-c2cccc(N)c2)n1; 72
6) Cc1ccc(-n2nc(C(C)(C)C)cc2NC(=O)Nc2nc(CCOCc3ccncc3)cs2)cc1; 2
7) Cc1ccc(-n2nc(C(C)(C)C)cc2NC(=O)Nc2nc(CCOCc3ccc(F)cc3)cs2)cc1; 230
8) CC(C)(C)c1cc(NC(=O)Nc2nccs2)n(-c2ccc(CC(=O)O)cc2)n1; 820

We next turn to a different compound, shown below.
Prompt: Name the reported IC50 value associated with the compound CC(C)(C)c1cc(NC(=O)Nc2nc(CCOCc3ccccc3)cs2)n(-c2cccc(CC(=O)O)c2)n1
Response: 1670

====

- EXPERIMENTAL_TARGET: Discoidin domain-containing receptor 2 (Homo sapiens, UniProt Q16832)
- METHOD_NOTES: Binding affinity to human DDR2 by Ambit assay
MEASURED_ENDPOINT: Kd
Note: state the figure and append the unit.

Prompt: Data request, read-out Kd, for CC(C)(C)c1cc(NC(=O)Nc2ccc(Cl)cc2)n(-c2cccc(N)c2)n1
Response: 15 nM

====

As an illustration, consider measured pIC50 for molecules on Discoidin domain-containing receptor 2 (Homo sapiens, UniProt Q16832).
Units for pIC50: none; it is -log10 of a concentration expressed in mol/L.

1) Nc1c(-c2ccccc2)oc2ccccc2c1=O; 4.09
2) Cc1ccc(-n2nc(C(C)(C)C)cc2NC(=O)Nc2cccc3ccccc23)cc1; 6.39
3) CCOCCNc1cccc(-n2nc(C(C)(C)C)cc2NC(=O)Nc2ccc(OCCN3CCOCC3)c3ccccc23)c1; 4.84

Prompt: Give the measured pIC50 of Cc1ccc(-n2nc(C(C)(C)C)cc2NC(=O)Nc2nc(CCOCc3ccc(F)cc3)cs2)cc1 .
Response: 5.52

Prompt: Same lookup for CC(C)(C)c1cc(NC(=O)Nc2ccccc2)n(-c2cccc(N)c2)n1 , please.
Response: 5.03
